Target: human TGR5 (Homo sapiens)
Construct: expressed in transfected cells; host or cells: BHK cells
Sequence (Q8TDU6 1-330): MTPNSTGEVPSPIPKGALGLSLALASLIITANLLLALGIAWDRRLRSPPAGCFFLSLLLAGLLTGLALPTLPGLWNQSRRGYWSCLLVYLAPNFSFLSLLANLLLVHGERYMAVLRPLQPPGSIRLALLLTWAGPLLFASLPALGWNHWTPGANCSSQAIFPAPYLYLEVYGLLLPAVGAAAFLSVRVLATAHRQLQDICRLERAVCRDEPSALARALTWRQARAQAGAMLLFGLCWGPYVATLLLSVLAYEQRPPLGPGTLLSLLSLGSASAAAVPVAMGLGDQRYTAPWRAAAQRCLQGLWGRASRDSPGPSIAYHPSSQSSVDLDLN
Assay: cAMP production in BHK cells expressing the human TGR5 (CisBio cAMP kit), normalized to LCA = 100%
Type: cell-based
Details: BHK cells expressing human TGR5, 30 minutes incubation, unit inferred
Property Measured: EC50 (nM)
Please give a number only; it is taken to be in nM.

QUERY: Find the recorded EC50 belonging to CCC(C)C1OC(=O)C(Cc2ccccc2)NC(=O)C(C)C/C(C)=C/C(C)C(O)/C(C)=C/C1C (stereo not shown) and report it.
RESULT: 400
